# System: biosensor E. coli SM 101 (EBZ512, pEBZ511, pEBZ514)
# ASSAY_REMARKS: Luminescence measurements in the agar-plate diffusion assay with the E. coli biosensor system (luciferase reporter under mph(A) promoter / MphR(A) control)
# Type: cell-based
# TEST_CONTEXT: assay discs, 28° C., 2 to 4 hours or 15 to 24 hours, FIG. 3
OUTCOME_MEASURE: stimulation of luminescence of the biosensor system

CC[C@H]1OC(=O)[C@H](C)C(=O)[C@H](C)[C@@H](O[C@@H]2O[C@H](C)C[C@H](N(C)C)[C@H]2O)[C@@H](C)C[C@@H](C)C(=O)/C=C/[C@]1(C)O ... indicates
CO[C@H]1C[C@H](O[C@H]2[C@H](C)[C@@H](O[C@@H]3O[C@H](C)C[C@H](N(C)C)[C@H]3O)[C@@H](C)C[C@@]3(CO3)C(=O)[C@H](C)[C@@H](O)[C@@H](C)[C@@H](C)OC(=O)[C@@H]2C)O[C@@H](C)[C@@H]1O ... indicates
CC[C@H]1OC(=O)[C@H](C)[C@@H](O[C@H]2C[C@@](C)(OC)[C@@H](O)[C@H](C)O2)[C@H](C)[C@@H](O[C@@H]2O[C@H](C)C[C@H](N(C)C)[C@H]2O)[C@](C)(O)C[C@@H](C)C(=O)[C@H](C)[C@@H](O)[C@]1(C)O ... indicates
CC[C@H]1OC(=O)[C@H](C)[C@@H](O[C@H]2C[C@@](C)(OC)[C@@H](O)[C@H](C)O2)[C@H](C)[C@@H](O[C@@H]2O[C@H](C)C[C@H](N(C)C)[C@H]2O)[C@](C)(O)C[C@@H](C)CN(C)[C@H](C)[C@@H](O)[C@]1(C)O ... stimulated
CC[C@H]1OC(=O)[C@H](C)[C@@H](O[C@@H]2O[C@H](C)C[C@H](N(C)C)[C@H]2O)[C@@H](C)C[C@@H](C)C(=O)/C=C/[C@]1(C)O ... stimulated
CC[C@H]1OC(=O)[C@H](C)[C@@H](O[C@H]2C[C@@](C)(OC)[C@@H](O)[C@H](C)O2)[C@H](C)[C@@H](O[C@@H]2O[C@H](C)C[C@H](N(C)C)[C@H]2O)[C@](C)(OC)C[C@@H](C)C(=O)[C@H](C)[C@@H](O)[C@]1(C)O ... indicates

Could you now look at the following compound, please?
[ask] What does the data say about its stimulation of luminescence of the biosensor system? Entry: "CC[C@H]1OC(=O)[C@H](C)C(=O)[C@H](C)[C@@H](O[C@@H]2O[C@H](C)C[C@H](N(C)C)[C@H]2O)[C@@H](C)C[C@@H](C)C(=O)/C=C/[C@H]1C"
[reply] indicates

Where do the numbers come from? From patent US20040209270A1.
